Target: PAI-1 (Homo sapiens, UniProt P05121)
Construct: purchased Stago BNL (Asnières sur Seine, FR)
Sequence (P05121 24-402): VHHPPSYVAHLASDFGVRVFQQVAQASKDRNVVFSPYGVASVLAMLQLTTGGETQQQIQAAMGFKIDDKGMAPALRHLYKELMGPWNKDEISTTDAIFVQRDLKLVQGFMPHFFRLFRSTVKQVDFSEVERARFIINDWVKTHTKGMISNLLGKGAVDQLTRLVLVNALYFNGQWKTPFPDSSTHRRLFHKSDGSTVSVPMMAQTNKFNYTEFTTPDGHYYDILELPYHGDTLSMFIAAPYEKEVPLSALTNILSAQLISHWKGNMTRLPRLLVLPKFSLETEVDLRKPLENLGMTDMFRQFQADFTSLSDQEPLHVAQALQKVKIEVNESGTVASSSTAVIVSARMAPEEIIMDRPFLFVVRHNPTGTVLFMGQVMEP
Test: thromboelastography (TEG) on pooled human plasma with tPA and PAI-1
Format: biochemical
Conditions: LY60 of three independent experiments plotted against concentration; read-out: IC50 from LY60 values

- compound: "CCCCCCCCCCCC[C@@H](O)[C@H]1CC[C@H]([C@H](O)CCCCC(=O)CCCCC[C@@H](O)CC2=C[C@H](C)OC2=O)O1"
  IC50, µM: 2.3

----------
Quick reference: IC50 of the listed items.
Target: PAI-1 (Homo sapiens)
Construct: purchased Stago BNL (Asnières sur Seine, FR)
Assay: chromogenic screening assay: rate of tPA inhibition by PAI-1 (spectrozyme tPA hydrolysis)
Assay type: biochemical
Procedure: Compounds from our local collection BioCIS and from the Prestwick compound library (Prestwick chemicals, Illkirch, FR), a collection containing only FDA approved drugs (around 4000 compounds in total) were tested in a chromogenic assay measuring the inhibition rate of tPA-catalyzed spectrozyme® tPA hydrolysis in the presence of PAI-1. […] The kinetic was then measured at 405 nm for 45 min at 37 °C in an Envision microplate reader. […]

- compound: "CCCCCCCCCCCC[C@@H](O)[C@H]1CC[C@H]([C@H](O)CCCC[C@H](O)CCCCC[C@@H](O)CC2=CC(C)OC2=O)O1 (some centres unmarked)"
  result-modifier: "="
  IC50 / µM: 6
- compound: "CCCCCCCCCCCC[C@@H](O)[C@H]1CC[C@H]([C@H](O)CCCC[C@H](O)CCCCCC2CC(CC(C)=O)C(=O)O2)O1 (some centres unmarked)"
  result-modifier: ">"
  IC50 / µM: 50

----------
Quick reference: kapp 50 μM (apparent rate constant of tPA inhibition by PAI-1) of the listed items.
Target: PAI-1 (Homo sapiens, UniProt P05121)
Construct: purchased Stago BNL (Asnières sur Seine, FR)
Assay: chromogenic screening assay: rate of tPA inhibition by PAI-1 (spectrozyme tPA hydrolysis)
Type: biochemical
Conditions: compound 50 μM, 1% DMSO; PAI-1 20 nM, tPA 10 nM; DMSO 1% control 4.4 ± 0.3 × 10^-3; mean ± SEM, n = 3
readout-label: kapp 50 μM (apparent rate constant of tPA inhibition by PAI-1)

- compound: "CCCCCCCCCCCC[C@@H](O)[C@H]1CC[C@H]([C@H](O)CCCC[C@H](O)CCCCC[C@@H](O)CC2=CC(C)OC2=O)O1 (stereo partly drawn) [Annonacine]"
  target-under-test: "PAI-1 (Homo sapiens, UniProt P05121)"
  measurement: "6.4 ± 0.4 × 10^-4 s^-1"
- compound: "CCCCCCCCCC[C@H](O)[C@H]1CC[C@H]([C@H]2CC[C@H]([C@H](O)CCCCCCCCCCC3CC(CC(C)=O)C(=O)O3)O2)O1 (stereo partly drawn) [Isorolliniastatin-2]"
  target-under-test: "PAI-1 (Homo sapiens, UniProt P05121)"
  measurement: "8.5 ± 0.6 × 10^-4 s^-1"
- compound: "CCCCCCCCCCCC[C@@H](O)[C@H]1CC[C@H]([C@H](O)CCCCC(=O)CCCCC[C@@H](O)CC2=C[C@H](C)OC2=O)O1 [Annonacinone]"
  target-under-test: "PAI-1 (Homo sapiens, UniProt P05121)"
  measurement: "6.4 ± 0.7 × 10^-4 s^-1"
- compound: "O=C(O)C(=O)c1cn(Cc2ccccc2)c2ccc(-c3ccc(OC(F)(F)F)cc3)cc12 [Tiplaxtinin, reference compound]"
  target-under-test: "PAI-1 (Homo sapiens, UniProt P05121)"
  measurement: "1.7 ± 0.3 × 10^-3 s^-1"
- compound: "CCCCCCCCCC[C@H](O)[C@H]1CC[C@H]([C@H]2CC[C@H]([C@H](O)CCCCCCCCCCC(O)CC3=C[C@H](C)OC3=O)O2)O1 (stereo partly drawn) [Rolliniastatin-2]"
  target-under-test: "PAI-1 (Homo sapiens, UniProt P05121)"
  measurement: "7.5 ± 0.5 × 10^-4 s^-1"
- compound: "CCCCCCCCCCCC[C@@H](O)[C@H]1CC[C@H]([C@H](O)CCCC[C@H](O)CCCCCC2CC(CC(C)=O)C(=O)O2)O1 (stereo partly drawn) [Isoannonacine]"
  target-under-test: "PAI-1 (Homo sapiens, UniProt P05121)"
  measurement: "1.1 ± 0.1 × 10^-3 s^-1"
